All figures here come from ChEMBL document CHEMBL1138980.

Biological target: Glycogen synthase kinase-3 beta (Homo sapiens, UniProt P49841)
Sequence (P49841 whole entry): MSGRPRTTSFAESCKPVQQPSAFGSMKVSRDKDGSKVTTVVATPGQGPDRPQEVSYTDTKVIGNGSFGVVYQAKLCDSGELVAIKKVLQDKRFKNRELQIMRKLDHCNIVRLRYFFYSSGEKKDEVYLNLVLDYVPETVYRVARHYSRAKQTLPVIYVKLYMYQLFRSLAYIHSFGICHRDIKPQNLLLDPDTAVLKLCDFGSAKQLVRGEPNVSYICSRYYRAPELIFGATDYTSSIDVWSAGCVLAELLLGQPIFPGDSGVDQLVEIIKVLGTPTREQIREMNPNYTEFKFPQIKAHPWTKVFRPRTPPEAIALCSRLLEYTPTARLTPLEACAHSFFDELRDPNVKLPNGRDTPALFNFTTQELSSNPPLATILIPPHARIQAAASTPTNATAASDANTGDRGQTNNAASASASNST
Mark label 1 only for IC50 values smaller than 800 nM; exact matches and larger values are label 0.

Prompt line: Does this molecule meet the criterion IC50 < 800 nM? CN(C)S(=O)(=O)c1ccc(Nc2cc(N[C@H]3CC[C@H](N)CC3)nc3ncnn23)cc1
Response line: label 0

Prompt line: Does this molecule meet the criterion IC50 < 800 nM? NS(=O)(=O)c1ccc(Nc2cc(NC3CCCCC3)nc3ncnn23)cc1
Response line: label 0

Prompt line: Does this molecule meet the criterion IC50 < 800 nM? CCN(CC)c1cc(Nc2ccc(S(N)(=O)=O)cc2)n2ncnc2n1
Response line: label 0

Prompt line: Does this molecule meet the criterion IC50 < 800 nM? NS(=O)(=O)c1ccc(Nc2nc(OCC3CCCCC3)c3nc[nH]c3n2)cc1
Response line: label 1

Prompt line: Does this molecule meet the criterion IC50 < 800 nM? NS(=O)(=O)c1ccc(Nc2cc(OC3CCCCC3)nc3ncnn23)cc1
Response line: label 1

====

Data export: pIC50 values recorded with Cyclin-dependent kinase 1 (Homo sapiens).
Sequence (P06493 whole entry): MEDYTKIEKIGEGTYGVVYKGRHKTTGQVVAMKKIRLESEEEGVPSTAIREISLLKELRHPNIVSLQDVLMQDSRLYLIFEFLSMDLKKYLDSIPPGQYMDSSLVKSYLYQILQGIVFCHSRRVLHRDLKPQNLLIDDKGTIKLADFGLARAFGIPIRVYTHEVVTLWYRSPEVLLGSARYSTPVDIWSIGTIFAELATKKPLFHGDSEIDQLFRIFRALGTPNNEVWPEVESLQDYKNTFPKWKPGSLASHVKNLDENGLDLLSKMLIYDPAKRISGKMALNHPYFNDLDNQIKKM
Kindly note that pIC50 refers to -log10 of the concentration in mol/L and answer with the value alone.

Prompt line: What pIC50 value was documented for this compound, CS(=O)(=O)c1ccc(Nc2cc(N[C@H]3CC[C@H](N)CC3)nc3ncnn23)cc1 ?
Response line: 4.80

Prompt line: What pIC50 value was documented for this compound, NS(=O)(=O)c1ccc(Nc2cc(OC3CCCCC3)nc3ncnn23)cc1 ?
Response line: 6.85
